organism: Rattus norvegicus; experiment: Open TG-GATES - Regimen: Daily Repeat; type: toxicity, organism-based, Sprague-Dawley; set-up: regimen Daily Repeat, gender Male, age 6 weeks; conditions: in vivo, po, 0 mg/kg, […], tissue Blood, route gavage, dose level Control, time 14 day
recordedMetric: PT (s)
Write the answer as a number in s, unit excluded.

Look up and state reported PT for CN(C)C(=N)N=C(N)N 12.3

Look up and state reported PT for CC1=C(CC(=O)O)c2cc(F)ccc2/C1=C\c1ccc([S+](C)[O-])cc1 (stereo not given) 14.2

Look up and state reported PT for CC(C)N(CCC(C(N)=O)(c1ccccc1)c1ccccn1)C(C)C (stereo not given) [DISOPYRAMIDE] 15.7

Look up and state reported PT for ClC(Cl)(Cl)Cl [CARBON TETRACHLORIDE] 11.5

Look up and state reported PT for CCc1oc2ccccc2c1C(=O)c1cc(Br)c(O)c(Br)c1 11.8

###

For each of the compounds below, state its gamma-GTP.
species on record: Rattus norvegicus; assay: Open TG-GATES - Regimen: Daily Repeat; type: toxicity, organism-based, Sprague-Dawley; set-up: regimen Daily Repeat, gender Male, age 6 weeks; settings: in vivo, po, 0 mg/kg, […], tissue Plasma, route gavage, dose level Control, time 28 day
Field note: include the unit after the figure.

Look up and state reported gamma-GTP for OCCOCCN1CCN(C(c2ccccc2)c2ccc(Cl)cc2)CC1 (stereo unspecified) [HYDROXYZINE] 0.4 IU/L

Look up and state reported gamma-GTP for CC[C@H]1[C@@H]2C[C@H]3[C@@H]4N(C)c5ccccc5[C@]45C[C@@H]([C@@H]2[C@H]5O)N3[C@@H]1O 1.6 IU/L

Look up and state reported gamma-GTP for ClC(Cl)(Cl)Cl [CARBON TETRACHLORIDE] 0.8 IU/L

Look up and state reported gamma-GTP for CCc1oc2ccccc2c1C(=O)c1cc(Br)c(O)c(Br)c1 1.4 IU/L

Look up and state reported gamma-GTP for CCC1(c2ccccc2)C(=O)NC(=O)NC1=O 1.4 IU/L

Look up and state reported gamma-GTP for CN(C)C(=N)N=C(N)N 1 IU/L

###

organism: Rattus norvegicus; assay: Open TG-GATES - Regimen: Daily Repeat; format: toxicity, organism-based, Sprague-Dawley; set-up: regimen Daily Repeat, gender Male, age 6 weeks; conditions: in vivo, po, 0 mg/kg, […], tissue Blood, route gavage, dose level Control, time 28 day
# if measured Neu < 10%: Satisfied  # else: Not satisfied

# check: Neu < 10% for O=NN(CCCl)C(=O)NC1CCCCC1 Not satisfied

# check: Neu < 10% for CC[C@H]1[C@@H]2C[C@H]3[C@@H]4N(C)c5ccccc5[C@]45C[C@@H]([C@@H]2[C@H]5O)N3[C@@H]1O Satisfied

# check: Neu < 10% for ClC(Cl)(Cl)Cl [CARBON TETRACHLORIDE] Not satisfied

# check: Neu < 10% for CN(C)C(=N)N=C(N)N Not satisfied

# check: Neu < 10% for CCC1(c2ccccc2)C(=O)NC(=O)NC1=O Satisfied

###

organism: Rattus norvegicus; assay: Open TG-GATES - Regimen: Single; format: toxicity, organism-based, Sprague-Dawley; parameters: regimen Single, gender Male, age 6 weeks; details: in vivo, po, 0 mg/kg, 3 h, tissue Plasma, route gavage, dose level Control
# if measured A/G < 2: True  # else: False

# check: A/G < 2 for CC1=C(CC(=O)O)c2cc(F)ccc2/C1=C\c1ccc([S+](C)[O-])cc1 (configuration not stated) True

# check: A/G < 2 for ClC(Cl)(Cl)Cl [CARBON TETRACHLORIDE] True

# check: A/G < 2 for CCC1(c2ccccc2)C(=O)NC(=O)NC1=O True

# check: A/G < 2 for CC[C@H]1[C@@H]2C[C@H]3[C@@H]4N(C)c5ccccc5[C@]45C[C@@H]([C@@H]2[C@H]5O)N3[C@@H]1O False

# check: A/G < 2 for OCCOCCN1CCN(C(c2ccccc2)c2ccc(Cl)cc2)CC1 (configuration not stated) [HYDROXYZINE] True
